TARGET_UNDER_TEST: LgTrip 3546 (with His tag; SEQ ID NO: 51)
Sequence (chain, as listed by the source): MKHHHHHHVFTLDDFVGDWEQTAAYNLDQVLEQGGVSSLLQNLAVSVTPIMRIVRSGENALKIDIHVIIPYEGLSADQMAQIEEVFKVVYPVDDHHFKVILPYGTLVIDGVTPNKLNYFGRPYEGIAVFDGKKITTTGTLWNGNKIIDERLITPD
METHOD_DESCRIPTION: luminescence complementation; SmTrip9 Kd
STUDY_CONDITIONS: modification not given
MEASURED_METRIC: Kd (nM)
Numbers only, in nM.

Some solved cases for reference:
>  <BINDER>
KKMLFRVTIQKWK [760]

>  <SCALE_UNIT>
nM

>  <QUANTITATIVE_RESULT>
20

$$$$
>  <BINDER>
DRMLFRVTIERWR [770]

>  <SCALE_UNIT>
nM

>  <QUANTITATIVE_RESULT>
350

$$$$
>  <BINDER>
DKMLFRVTIQKWK [738]

>  <SCALE_UNIT>
nM

>  <QUANTITATIVE_RESULT>
110

$$$$
>  <BINDER>
GKMLFKVTINKWK [781]

>  <SCALE_UNIT>
nM

>  <QUANTITATIVE_RESULT>
380

$$$$
>  <BINDER>
GKMLFTVTINKWK [782]

>  <SCALE_UNIT>
nM

>  <QUANTITATIVE_RESULT>
360

$$$$

Would you be so kind as to report Kd for each listed record?
1. DKLLFTVTINKYK [800]
2. DKMLFKVTINKWK [787]
3. ERMLFRVTIGRWR [766]

[out]
[9750, 730, 70]
